Cited source for all entries: patent US20080312435A1

MEASUREMENT_TARGET: human CB2 receptor (Homo sapiens)
Sequence (P34972 whole entry): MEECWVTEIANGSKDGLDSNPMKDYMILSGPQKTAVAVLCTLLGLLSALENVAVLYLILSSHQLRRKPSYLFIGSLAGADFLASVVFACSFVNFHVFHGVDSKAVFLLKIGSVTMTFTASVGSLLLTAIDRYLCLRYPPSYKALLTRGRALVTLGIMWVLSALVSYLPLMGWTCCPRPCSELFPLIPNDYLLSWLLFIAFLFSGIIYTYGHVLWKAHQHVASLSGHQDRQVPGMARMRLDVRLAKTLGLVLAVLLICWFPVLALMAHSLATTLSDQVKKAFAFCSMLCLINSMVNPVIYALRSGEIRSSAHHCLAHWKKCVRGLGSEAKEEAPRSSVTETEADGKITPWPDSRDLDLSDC
ASSAY: Test for GTPγS binding via human CB2 receptor
PARTICULARS: human CB2 receptor CHO membrane fractions; read-out: EC50 value (effective concentration exhibiting 50% activity), GTPγS binding
RESULT_TYPE: EC50 (nM)
Answer with a number only, understood to be in nM.

Which EC50 is reported with human CB2 receptor (Homo sapiens) for this entry: COc1ccc(C(F)(F)F)cc1C(=O)/N=c1\sc(C(C)(C)C)c(C)n1CC1CC1 ?
0.4

Item: Cn1c(C(C)(C)C)c/c(=N\C(=O)c2cccc(C(F)(F)F)c2F)n1CC1CC1 Test system: human CB2 receptor (Homo sapiens) Read-out: EC50 Value: ?
2.3

Identify the measured EC50 of Cc1c(C(C)(C)C)s/c(=N\C(=O)c2cccc(C(F)(F)F)c2)n1CC1CC1 for human CB2 receptor (Homo sapiens).
9.8

Give the reported EC50 for O=C(/N=c1\ccccn1CC1CC1)c1cccc(C(F)(F)F)c1F (system: human CB2 receptor (Homo sapiens)).
23.7

====

Assign melting point to each entry below.

Form field: reported melting point of Cc1c(C(C)(C)C)s/c(=N\C(=O)c2ccc(F)c(C#N)c2)n1CC1CC1
195 to 197 °C

Which melting point is reported for this molecule? Cc1s/c(=N\C(=O)c2ccc(Br)cc2F)n(CC2CC2)c1C
154 to 155 °C

Query (molecule): Cc1c(C(C)(C)C)s/c(=N\C(=O)Cc2ccccc2)n1CC1CC1 ; field requested: melting point
92 to 94 °C

Query: melting point; subject: Cc1c(C(C)(C)C)s/c(=N\C(=O)c2cccc(C(F)(F)F)c2)n1C(C)C
135 to 137 °C

Which measured melting point value corresponds to CCn1c(C)c(C)s/c1=N\C(=O)c1cccc(C(F)(F)F)c1F ?
198 to 200 °C

May I ask what melting point has been recorded for COc1ccc(C(F)(F)F)cc1C(=O)/N=c1\cc(C(C)(C)C)sn1CC1CC1 ?
95 to 97 °C

Using the record for Cc1c(CC(C)(C)C(C)(C)C)s/c(=N\C(=O)c2cc(C(F)(F)F)ccc2F)n1CC1CC1 , report its melting point.
88 to 89 °C

# lookup: melting point of Cc1c(C(C)(C)C)s/c(=N\C(=O)c2cccc(N(C)C)c2)n1C
189 to 190 °C

Reported melting point, molecule O=C(/N=c1\c(F)cc(F)cn1CC1CC1)c1cccc(C(F)(F)F)c1F : ____
69 to 71 °C

Sample COCCCn1/c(=N/C(=O)c2cccc(C(F)(F)F)c2F)cc(C)n1C — what was its melting point?
88 to 90 °C

State the recorded melting point for this entry: Cc1c(C(C)(C)C)s/c(=N\C(=O)c2cc(F)ccc2C(F)(F)F)n1C
83 to 85 °C

Fill blank: measured melting point of the molecule Cc1ccc(F)cc1C(=O)/N=c1\sc(C(C)(C)C)c(C)n1CC1CC1 is ____.
91 to 93 °C

Reported melting point for Cc1ccc(F)cc1C(=O)/N=c1\sc(C)c(C)n1CC1CC1 : what is it?
82 to 84 °C

Any idea what its melting point is? The molecule is COCCNC1=C(C(=O)/N=c2\sc(C(C)(C)C)c(C)n2CC2CC2)CC(C(F)(F)F)C=C1 (stereo not drawn)
131 to 132 °C

Reported melting point for Cn1cccc/c1=N\C(=O)c1cccc(C(F)(F)F)c1F : what is it?
146 to 147 °C

Item CSc1ncccc1C(=O)/N=c1\sc(C(C)(C)C)c(C)n1CC1CC1 has what recorded melting point?
138 to 139 °C

Param item = Cc1c(C(C)(C)C)s/c(=N\C(=O)c2cc(F)ccc2C(F)(F)F)n1CC1CC1 ; retrieve measured melting point.
110 to 112 °C

For the molecule shown here, Cc1ccc(C(=O)/N=c2\cc(C(C)(C)C)n(C)n2CC2CC2)cc1Cl , give the reported melting point.
135 to 136 °C

Recorded melting point for CCn1c(C)c(C(C)(C)C)s/c1=N\C(=O)c1cccc(C(F)(F)F)c1F , please?
97 to 99 °C

Fill blank: measured melting point of the molecule Cc1ccccc1C(=O)/N=c1\sc(C(C)(C)C)c(C)n1C is ____.
173 to 175 °C

Look at this molecule and give its reported melting point. Cc1c(C(C)(C)C)s/c(=N\C(=O)C(C)(C)C)n1CC1CC1
102 to 104 °C

Find the recorded melting point belonging to Cc1ccccc1C(=O)/N=c1/sc2cccc(Cl)c2n1CC1CC1 and report it.
146 to 148 °C

Recorded melting point of Cc1c(C(C)(C)C)s/c(=N\C(=O)c2cc(C(F)(F)F)ccc2F)n1C , please.
140 to 142 °C

Returns the measured melting point for the input molecule. Input: Cc1c(C(C)(C)C)s/c(=N\C(=O)c2cc(F)c(Cl)cc2Cl)n1C
205 to 207 °C

I'd like to know its melting point. The molecule in question is Cn1c(C(F)(F)F)c(-c2ccccc2)/c(=N\C(=O)c2cccc(C(F)(F)F)c2F)n1C
169.5 to 170 °C

Requested field: melting point. Item: CCOCCn1/c(=N/C(=O)c2cccc(C(F)(F)F)c2F)cc(C)n1C
136 to 137 °C

Suppose we examine the molecule Cc1c(C(C)(C)C)s/c(=N\C(=O)c2cccc(F)c2F)n1C ; what melting point value has been reported?
176 to 178 °C

Report melting point for Cc1c(C(C)(C)C)s/c(=N\C(=O)Cc2cccs2)n1CC1CC1 please.
157 to 159 °C

What measured melting point goes with CCn1c(C)c(C(C)(C)C)s/c1=N\C(=O)c1cnccc1C(F)(F)F ?
110 to 112 °C

Please report the recorded melting point for COc1ccc(C(=O)/N=c2\cc(C)cc(C)n2C)c(OC)c1 .
117.5 to 118 °C

Form field: reported melting point of Cc1c(C(C)(C)C)s/c(=N\C(=O)c2cccc(C(F)(F)F)c2)n1CCO
147 to 149 °C

Any idea what its melting point is? The molecule is Cn1c(C(C)(C)C)c/c(=N\C(=O)c2cccc(Cl)c2Cl)n1CC1CCC1
152.5 to 154 °C

Which melting point reading was recorded for the molecule Cc1s/c(=N\C(=O)c2cccc(C(F)(F)F)c2F)n(C)c1C ?
182 to 183 °C

Param item = Cc1c(C(C)(C)C)s/c(=N\C(=O)c2cc(F)ccc2Cl)n1C ; retrieve measured melting point.
125 to 126 °C

Recorded melting point of CCn1c(C)c(C(C)(C)C)s/c1=N\C(=O)c1cc(F)c(F)cc1Cl , please.
107 to 108 °C

Entry Cc1c(C(C)(C)C)s/c(=N\C(=O)c2ccccc2C(F)(F)F)n1C : reported melting point = ?
74 to 76 °C

I am curious: what melting point value has been reported for O=C(/N=c1\ccccn1CC1CCC1)c1cccc(C(F)(F)F)c1F ?
93 to 94 °C

What does the data say about its melting point? Entry: Cc1cccc(C(=O)/N=c2\sc(C(C)(C)C)c(C)n2CC2CC2)c1Br
142 to 144 °C

Dear colleague, I am looking for the recorded melting point of the following molecule: O=C(/N=c1\ccccn1CC1CC1)c1cccc(F)c1C(F)(F)F
88 to 89 °C

====

So I've got a bunch of compounds here, and I need their melting point values.

Fill in: melting point of Cc1c(C(C)(C)C)s/c(=N\C(=O)c2cccc(Cl)c2F)n1C is ___
203 to 205 °C

// returns reported melting point for input Cc1s/c(=N\C(=O)c2ccc(F)cc2C(F)(F)F)n(CC2CC2)c1C
143 to 144 °C

Query (compound): COc1ccc(C(=O)/N=c2\sc(C(C)(C)C)c(C)n2CC2CC2)c(OC)c1OC ; field requested: melting point
88 to 89 °C

Look up melting point for this compound: Cc1c(C(C)(C)C)s/c(=N\C(=O)C(F)(F)C(F)(F)C(F)(F)F)n1CC1CC1
147 to 148 °C

Entry Cc1ccc(C(=O)/N=c2\sc(C(C)(C)C)c(C)n2CC2CC2)c(Br)c1 has what melting point?
82 to 84 °C

What does the data say about its melting point? Entry: COc1ccc(C(=O)/N=c2\sc(C(C)(C)C)c(C)n2CC2CC2)c(C)c1
95 to 96 °C

Fill in: melting point of Cc1cn(C)/c(=N/C(=O)c2cccnc2)s1 is ___
173 to 174 °C

I'd like to know its melting point. The compound in question is Cc1c(Cl)cccc1C(=O)/N=c1\sc(C(C)(C)C)c(C)n1C
161 to 162 °C

What does the data say about its melting point? Entry: CC(C)(C)c1c/c(=N\C(=O)c2cc(C(F)(F)F)ccc2F)n(CC2CC2)s1
63 to 65 °C

====

human CB1 receptor (Homo sapiens) pIC50 data
Sequence (P21554 whole entry): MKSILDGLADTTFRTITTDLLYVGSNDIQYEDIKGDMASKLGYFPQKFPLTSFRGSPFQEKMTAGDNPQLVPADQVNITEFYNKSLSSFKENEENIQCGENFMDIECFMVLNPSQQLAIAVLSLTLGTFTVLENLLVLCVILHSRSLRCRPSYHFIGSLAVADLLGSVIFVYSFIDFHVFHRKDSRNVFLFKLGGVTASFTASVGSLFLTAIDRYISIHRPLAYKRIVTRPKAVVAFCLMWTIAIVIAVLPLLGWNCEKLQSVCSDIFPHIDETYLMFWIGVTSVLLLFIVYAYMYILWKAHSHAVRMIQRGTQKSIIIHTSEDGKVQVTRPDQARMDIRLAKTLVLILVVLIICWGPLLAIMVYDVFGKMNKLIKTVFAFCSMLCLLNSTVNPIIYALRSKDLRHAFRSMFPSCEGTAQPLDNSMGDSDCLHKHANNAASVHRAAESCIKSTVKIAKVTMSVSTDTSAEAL
Give only the number. pIC50 is defined as minus log10 of concentration in molar units.

Which pIC50 is reported for this compound? CCOCCn1/c(=N/C(=O)c2cccc(Cl)c2Cl)cc(C(C)(C)C)n1C
6.68

# lookup: pIC50 of Cc1c(C(C)(C)C)s/c(=N\C(=O)c2ccccc2Cl)n1CC1CC1
6.57

Given the entry Cc1cccc(C(=O)/N=c2\sc(C(C)(C)C)c(C)n2CC2CC2)c1Br , report its measured pIC50.
8.52

pIC50 for Cc1c(C(C)(C)C)s/c(=N\C(=O)c2c(Cl)ccc3cc(Cl)cnc23)n1CC1CC1 ?
7.26
